# tested system: T1, MLL4_(PHD2/3) S286A (human, UniProt O14686 227-324, S286A)
# T1 construct: human MLL4 (KMT2D), aa 227-324; source: E. coli BL21-CodonPlus, purified as WT
# T1 sequence (looked up): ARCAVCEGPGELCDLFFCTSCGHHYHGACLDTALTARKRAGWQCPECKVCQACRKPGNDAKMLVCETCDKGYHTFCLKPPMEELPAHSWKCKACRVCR
# assay details: other fluorescence titration; tryptophan fluorescence, 25 °C; 1.0 µM MLL4 PHD2/3 or MLL3 PHD2/3 with increasing peptide; excitation 295 nm; 20 mM Tris pH 7.2, 150 mM NaCl, 1 mM TCEP, 0.02% Tween20; average of three measurements
# experimental context: both partners purified
pKd: −log10 of the molar value.

binder | pKd
NRTGARTLADIKAKAQLVKAQ (peptide, UniProt Q76L83 650-670, looked up, also called ASXL2 (aa 650-670); MBH of ASXL2; source: synthetic peptide (SynPeptide)) [ASXL2 peptide (residues 650-670 of ASXL2)] | 6.10

Reference source: paper PMC11161652
